Listing of recorded time for ester bond hydrolysis by entry.
Settings: PB pH 7.0, 37 °C

{"MOLECULE": "CCC[C@@H](N)C(=O)O[C@]1(CC)C(=O)OCc2c1cc1n(c2=O)Cc2cc3ccccc3nc2-1 [Prodrug 2d]", "time for ester bond hydrolysis": "≤ 120 h"}
{"MOLECULE": "CC[C@@]1(OC(=O)CN)C(=O)OCc2c1cc1n(c2=O)Cc2cc3ccccc3nc2-1 [Prodrug 2a]", "time for ester bond hydrolysis": "≤ 96 h"}
{"MOLECULE": "CC[C@@H](N)C(=O)O[C@]1(CC)C(=O)OCc2c1cc1n(c2=O)Cc2cc3ccccc3nc2-1 [Prodrug 2c]", "time for ester bond hydrolysis": "~ 120 h"}

Turning to the following molecule.
# input // query time for ester bond hydrolysis value for entry CC[C@@]1(OC(=O)[C@@H](C)N)C(=O)OCc2c1cc1n(c2=O)Cc2cc3ccccc3nc2-1 [Prodrug 2b]
# output 96 h
